Test system: OVCAR-5 ovarian
Test: NCI tumour cell line growth inhibition, 48 h
// TGI lookup, one value per entry

Known TGI results, listed for orientation:
>  <Compound>
COC1CC2CCC(C)C(O)(O2)C(=O)C(=O)N2CCCCC2C(=O)OC(C(C)CC2CCC(O)C(OC)C2)CC(=O)C(C)C=C(C)C(O)C(OC)C(=O)C(C)CC(C)/C=C/C=C/C=C1C (stereo unspecified)

>  <TGI>
14.3 µM

$$$$
>  <Compound>
COC(=O)c1ccccc1CC1Cc2ccc3c(c2C1)CCC3 (stereo unspecified)

>  <TGI>
91.3 µM

$$$$
>  <Compound>
CCCCc1c2c(nc3c1CCCC3O)CCCC2 (stereo unspecified)

>  <TGI>
> 100 µM

$$$$
>  <Compound>
Cc1ccccc1C(=O)c1ccccc1O

>  <TGI>
> 100 µM

$$$$
>  <Compound>
NC(=S)N/N=C(\Cc1nc2ccc(Cl)cc2[nH]c1=O)C(=O)Nc1ccc(Cl)cc1

>  <TGI>
> 100 µM

$$$$

Then there is this compound:
May I ask what TGI has been recorded for `N#Cc1nc2c(S(=O)(=O)c3ccccc3)c(N)n(Cc3cccnc3)c2nc1C#N` ? > 100 µM

---

System: KM12 colon
Test: NCI tumour cell line growth inhibition, 48 h; in the data active = GI50 below about 0.43 µM; inactive = the rest
One label from this list, please: active, inactive

>  <Compound>
Cc1ccc(-n2c3c(c4c(CN(C)C)c(O)ccc42)CCc2ccccc2C3=O)cc1

>  <Measured on>
KM12 colon

>  <Group label>
inactive

$$$$
>  <Compound>
O=C1c2cc3c(cc2-c2c1c1ccc(Cl)cc1c(=O)n2CCCNCCO)OCO3

>  <Measured on>
KM12 colon

>  <Group label>
inactive

$$$$
>  <Compound>
CC(=O)[CH-]C(=O)c1ccccc1.CC(=O)[CH-]C(=O)c1ccccc1.CC1(C)C2CCC1(C)C([O-])C2.CC1(C)C2CCC1(C)C([O-])C2.[Ti+4]

>  <Measured on>
KM12 colon

>  <Group label>
inactive

$$$$

Turning now to a further record.
Which outcome did this test record for the compound O=C(/C=C/c1cccnc1)NCCCCC1CCCN(C(=O)c2ccccc2)C1 (centres undefined) ? active

---

TGI listing for selected compounds.
System: OVCAR-5 ovarian
Experiment: NCI tumour cell line growth inhibition, 48 h
Hi! Could you send only the number? It should be in nM, unit omitted.

>  <Molecule smiles>
C/C(=N\Nc1cc(C)c2cc(C)ccc2n1)c1ccccn1

>  <Value>
2080

$$$$

Would you kindly share the measured TGI for `Cc1sc2nc(-c3ccc(Cl)c([N+](=O)[O-])c3)c(/C=N/N=C(N)N)n2c1C` ? 2930

---

Test system: NCI-H23 lung
Experiment: NCI tumour cell line growth inhibition, 48 h
Observed property: GI50

Examples with their reported GI50 follow.
>  <Compound>
CCn1c(CN2CCN(Cc3ccccc3)CC2)nc2cc(NC(=O)c3cccs3)ccc21

>  <GI50>
19.9 µM

$$$$
>  <Compound>
CC(C)(C)c1nn(-c2ccccc2)c2c1C(=O)CSC(c1ccccc1Cl)N2 (stereo not drawn)

>  <GI50>
2.39 µM

$$$$
>  <Compound>
C#CCC(Cc1cnc2nc(N)nc(N)c2n1)c1ccc(C(=O)N[C@@H](CCC(=O)O)C(=O)O)cc1 (stereo partly drawn)

>  <GI50>
< 0.0174 µM

$$$$
>  <Compound>
CCOc1ccc(-c2nonc2NC(=O)c2cccc(C)c2)cc1OCC

>  <GI50>
35.8 µM

$$$$
>  <Compound>
O=C(Nc1cccc(Cl)c1)c1ccc(NC2=C(Cl)C(=O)N(Cc3ccccc3)C2=O)cc1

>  <GI50>
13.6 µM

$$$$
>  <Compound>
C/C(=N\Nc1cc(C)c2cc(C)ccc2n1)c1ccccn1

>  <GI50>
0.139 µM

$$$$

Lookup: GI50 / NCI-H23 lung / `COC(=O)c1c2c(c(C)[n+]([O-])c1C)C(=O)C=C(NCc1ccc(F)c(Cl)c1)C2=O` 0.412 µM

Lab note: need GI50 for `Nc1c(Br)cc(Br)c2c1[nH]c(=O)c1ccccc12` on NCI-H23 lung, anyone have it? 20.7 µM

---

Tested on: BT-549 breast
Test: NCI tumour cell line growth inhibition, 48 h; in the data active = GI50 below about 0.43 µM; inactive = the rest
Entry note: the call must match one of active, inactive

>  <Molecule>
COc1ccccc1CCN=C1NC(=O)/C(=C/c2ccc3ncccc3c2)S1

>  <Group label>
inactive

$$$$

What outcome does the record of this test show for CC1=C2C[C@H]3[C@@H](CC[C@@H]4CC(NS(C)(=O)=O)CC[C@@]43C)[C@@H]2CC[C@@]2(C1)O[C@@H]1C[C@H](C)CN[C@H]1[C@H]2C (some centres not stated) ? inactive

Would you mind telling me which call this test gave `C=C1C(=O)O[C@H]2[C@H]1CC/C(Cn1cc(-c3cc(C(F)(F)F)cc(C(F)(F)F)c3)nn1)=C\CC[C@@]1(C)O[C@@H]21` ? active

Entry O=C1NC(O)C(c2c[nH]c3ccccc23)=C1c1c[nH]c2ccccc12 (configuration not stated) : call = ? inactive

---

System: SK-MEL-5 melanoma
Assay: NCI tumour cell line growth inhibition, 48 h; in the data active = GI50 below about 0.43 µM; inactive = the rest
Thanks in advance; please answer with one of these: active, inactive

Record excerpt, results attached:
>  <Compound>
COc1ccc(/C=C\c2cc(OC)c(OC)c(OC)c2)cc1OC(=O)c1cccc(Cn2cc(CCOC(=O)[C@H](N)Cc3cn(C)c4ccccc34)nn2)c1

>  <Measured on>
SK-MEL-5 melanoma

>  <Group label>
active

$$$$
>  <Compound>
Nc1c(Br)cc(Br)c2c1[nH]c(=O)c1ccccc12

>  <Measured on>
SK-MEL-5 melanoma

>  <Group label>
inactive

$$$$

Here is the next item to consider.
Which outcome did this test record for the compound COC(=O)C1=C(C(=O)ON)C2C=CC1(C(Cc1ccccc1)Nc1ccccc1)O2 (stereo not drawn) ? inactive

---

Test system: MALME-3M melanoma
Assay: NCI tumour cell line growth inhibition, 48 h
Observed property: TGI

Some solved cases for reference:
>  <Compound>
COC(=O)c1c2c(c(C)[n+]([O-])c1C)C(=O)C=C(NCc1ccc(F)c(Cl)c1)C2=O

>  <TGI>
0.332 µM

$$$$
>  <Compound>
Cc1ccc(N=Nc2ccc(O)c(CN(C)C)c2)cc1C

>  <TGI>
34.8 µM

$$$$
>  <Compound>
COc1cc(CNc2ccc3nc4n(c(=O)c3c2)CCCCC4)cc(OC)c1OC

>  <TGI>
> 100 µM

$$$$

So what's the measured TGI for this one? `Cc1ccc2ccccc2c1NC1=NCCO1` > 100 µM

Requested field: TGI. Item: `COc1cc2cc(Oc3ccc(NC(=O)Nc4cccc(C(F)(F)F)c4)cc3)c(C)nc2cc1OC` 4.9 µM

Which TGI is listed for `CCOC(=O)C(/C=N\C(=S)Nc1ccc(Cl)c(Cl)c1)=C(/O)c1ccccc1` ? > 100 µM

Given the compound `COc1ccc(/C=C/C(=O)/C=C/c2ccc(OC)cc2)cc1` , what is its reported TGI? > 100 µM

TGI lookup needed for CC(C)(C)c1nn(-c2ccccc2)c2c1C(=O)CSC(c1ccccc1Cl)N2 (stereo not drawn) , thanks. 32.6 µM

---

# TGI values compiled below
Tested on: UO-31 renal
Assay: NCI tumour cell line growth inhibition, 48 h

Answered cases to consult:
>  <Compound>
Nc1ccc2nc(Nc3ccc(F)cc3)cnc2c1

>  <TGI>
> 100 µM

$$$$
>  <Compound>
CCC(CO)Nc1nc(NCc2ccccc2O)c2ncn(C(C)C)c2n1 (stereo not drawn)

>  <TGI>
4.27 µM

$$$$

Reported TGI for COc1ccc(C2CC(c3ccccc3)=Nc3c(-c4ccccc4)nnn32)cc1 (stereo not drawn) : what is it? > 100 µM

Name the reported TGI value associated with the compound `O=C(CN1CCN(CCCOc2c(-c3ccccc3)oc3ccccc3c2=O)CC1)Nc1ccc(Cl)cc1C(=O)c1ccccc1Cl` 29.4 µM

---

System: SR leukemia
Test: NCI tumour cell line growth inhibition, 48 h
Observed property: TGI

Worked set:
>  <Compound>
COc1ccc(C(=O)Cn2c(C(=O)/C=C/c3ccco3)nc3ccccc32)cc1

>  <TGI>
> 100 µM

$$$$
>  <Compound>
CS/C1=C(\c2ccc(C)cc2)N(c2ccccc2)C(=O)C(=O)N(c2ccccc2)/C(c2ccc(C)cc2)=C(/SC)SS1

>  <TGI>
> 100 µM

$$$$
>  <Compound>
C/C(=N/Nc1nc2ccccc2n1C)c1ccccn1

>  <TGI>
> 89.7 µM

$$$$
>  <Compound>
CC(=O)[C@@]1(O)CC[C@H]2[C@@H]3C[C@H](C)C4=CC(=O)CC[C@]4(C)[C@H]3[C@@H](O)C[C@@]21C

>  <TGI>
> 100 µM

$$$$
>  <Compound>
O=C1C(N2CCNCC2)=C(Cl)C(=O)c2ncccc21

>  <TGI>
> 10 µM

$$$$
>  <Compound>
N#Cc1nc2c(S(=O)(=O)c3ccccc3)c(N)n(Cc3cccnc3)c2nc1C#N

>  <TGI>
> 100 µM

$$$$

Then there is this compound:
So what's the measured TGI for this one? `CC(C)(C)c1cc(-c2cc(C(C)(C)C)n(-c3ccccc3)n2)nn1-c1ccccc1` > 100 µM

Attribution: PubChem BioAssay (NCI)
